Overview of recorded In Vivo LVh 3 mg/kg 8 h, remaining FAAH activity for various molecules
Molecular target: FAAH (Mus musculus)
Construct: A fragment of liver, left lung lobe and brain without cerebellum were removed; from tissue; host or cells: male NMRI mice; brain (without cerebellum) and liver homogenates
Sequence (O08914 whole entry, the tested form may be a part): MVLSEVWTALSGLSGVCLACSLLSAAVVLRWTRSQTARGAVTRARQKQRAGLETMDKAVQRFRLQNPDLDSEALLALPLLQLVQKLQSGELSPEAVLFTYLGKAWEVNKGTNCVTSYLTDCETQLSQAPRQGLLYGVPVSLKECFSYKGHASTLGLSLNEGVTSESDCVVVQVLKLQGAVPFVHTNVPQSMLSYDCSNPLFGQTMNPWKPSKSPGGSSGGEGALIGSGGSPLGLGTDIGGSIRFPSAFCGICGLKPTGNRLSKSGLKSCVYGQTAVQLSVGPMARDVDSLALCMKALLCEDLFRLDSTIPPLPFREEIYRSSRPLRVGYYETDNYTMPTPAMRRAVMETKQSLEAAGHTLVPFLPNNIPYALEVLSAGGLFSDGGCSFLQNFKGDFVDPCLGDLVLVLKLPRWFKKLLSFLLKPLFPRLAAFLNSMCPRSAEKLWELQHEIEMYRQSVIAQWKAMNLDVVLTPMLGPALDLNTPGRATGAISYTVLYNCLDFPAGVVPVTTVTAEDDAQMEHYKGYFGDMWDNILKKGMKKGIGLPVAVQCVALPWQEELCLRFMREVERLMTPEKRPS
Experiment: In vivo FAAH inhibition after oral dosing, remaining activity in liver homogenate (LVh, peripheral tissue)
Design: species or system NMRI mice
Settings: liver homogenate, 3 mg/kg, 8 h

Past entries and their recorded results:
[[record]]
molecule = "O=C(N1CCC(c2nc(-c3cccnc3)no2)CC1)n1nnc2ccccc21"
result = "113.2 % of control"

[[record]]
molecule = "O=C(N1CCC(CCCc2ccccc2)CC1)n1nnc2ccccc21"
result = "10.2 % of control"

[[record]]
molecule = "CN(C(=O)n1cnc(-c2ccc(O)cc2)c1)C1CCCCC1"
result = "1.2 % of control"

[[record]]
molecule = "C[C@@H](c1ccccc1)N(C)C(=O)n1nnc2ccccc21"
result = "5.7 % of control"


Item: `CC1(C)COCN1C(=O)n1cnc(-c2cccc(-c3ccccc3)c2)c1` | In Vivo LVh 3 mg/kg 8 h, remaining FAAH activity: 3.6 % of control

Item: `O=C(N1CCC2(CC1)OCCO2)n1nnc2ccccc21` | In Vivo LVh 3 mg/kg 8 h, remaining FAAH activity: 37.8 % of control

// data source = patent US9353082B2
